Data provenance: the supplement of paper PMC7877785

Examples of sequences with documented self-splicing fitness (ln) follow.
Experiment: self-splicing fitness, log relative to wild type (ln ratio); higher = more splicing; Tetrahymena group I intron in knt gene, E. coli kanamycin selection, DiMSum; sequences stand for … in CUCUCU…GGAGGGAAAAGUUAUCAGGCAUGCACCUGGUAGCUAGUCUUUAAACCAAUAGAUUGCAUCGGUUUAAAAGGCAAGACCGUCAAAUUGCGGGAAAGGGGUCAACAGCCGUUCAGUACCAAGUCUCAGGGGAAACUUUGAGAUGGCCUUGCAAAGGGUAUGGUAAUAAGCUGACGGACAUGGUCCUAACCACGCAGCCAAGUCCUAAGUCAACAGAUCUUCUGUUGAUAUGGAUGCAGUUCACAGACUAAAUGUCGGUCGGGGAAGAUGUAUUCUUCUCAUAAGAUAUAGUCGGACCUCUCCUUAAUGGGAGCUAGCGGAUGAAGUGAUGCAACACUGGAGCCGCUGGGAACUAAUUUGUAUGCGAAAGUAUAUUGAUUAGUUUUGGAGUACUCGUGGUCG;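 note: selection with 25 µg/mL kanamycin versus none on LB agar overnight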
Settings: 37 °C
Readout Label: self-splicing fitness (ln)

# Sequence Content, Observed Result
rows = [
    ("UAAUAGCAAUAUUACGUGGA", -2.33),
    ("AUGUAGCAAUAUUACGGUUC", -1.29),
    ("UGGUAGCAAUAUUACGACCC", -0.576),
    ("UUAAAGCAAUAUUACGGUAU", -1.22),
    ("UCGAAGCAAUAUUACGGAGU", -1.03),
    ("UUCCAGCAAUAUUACGUGCC", -2.5),
    ("AUGGAGCAAUAUUACGUACG", -2.58),
    ("CCUCAGCAAUAUUACGGCGU", -2.64),
    ("CGUUAGCAAUAUUACGUCUG", 0.164),
    ("AUCCAGCAAUAUUACGCGGA", -2.5),
    ("GAGAAGCAAUAUUACGGCGG", -1.25),
    ("UCAAAGCAAUAUUACGCAUC", -3.11),
    ("GUGCAGCAAUAUUACGUUGA", -0.806),
    ("UCACAGCAAUAUUACGAGCA", 0.102),
    ("CGCCAGCAAUAUUACGAUCU", -2.42),
    ("GUUGAGCAAUAUUACGGCAU", -0.928),
    ("GCCUAGCAAUAUUACGAACU", -0.772),
    ("ACGCAGCAAUAUUACGAGCU", -1.18),
    ("GUACAGCAAUAUUACGCUUU", -1.19),
    ("GCUAAGCAAUAUUACGGAAC", -0.743),
    ("GCAUAGCAAUAUUACGACCC", 0.324),
    ("UCCCAGCAAUAUUACGUUCC", -2.44),
    ("AGGAAGCAAUAUUACGUUCC", -2.59),
    ("GUAAAGCAAUAUUACGUGAG", -0.98),
    ("UGACAGCAAUAUUACGCGAU", -1.46),
    ("CGCCAGCAAUAUUACGGCAA", -0.186),
    ("UAUAAGCAAUAUUACGCAAG", 0.725),
    ("ACAUAGCAAUAUUACGACGU", 0.0804),
    ("UCCUAGCAAUAUUACGGGAU", -2.18),
    ("AAUCAGCAAUAUUACGAAAU", 0.368),
    ("UGUUAGCAAUAUUACGCCCG", 0.289),
    ("CAGUAGCAAUAUUACGUUAG", 0.119),
    ("GUCUAGCAAUAUUACGGAAG", 0.218),
    ("CCUUAGCAAUAUUACGGCUU", -1.99),
]

----------
Experiment: self-splicing fitness, log relative to wild type (ln ratio); higher = more splicing; Tetrahymena group I intron in knt gene, E. coli kanamycin selection, DiMSum; sequences stand for … in CUCUCU…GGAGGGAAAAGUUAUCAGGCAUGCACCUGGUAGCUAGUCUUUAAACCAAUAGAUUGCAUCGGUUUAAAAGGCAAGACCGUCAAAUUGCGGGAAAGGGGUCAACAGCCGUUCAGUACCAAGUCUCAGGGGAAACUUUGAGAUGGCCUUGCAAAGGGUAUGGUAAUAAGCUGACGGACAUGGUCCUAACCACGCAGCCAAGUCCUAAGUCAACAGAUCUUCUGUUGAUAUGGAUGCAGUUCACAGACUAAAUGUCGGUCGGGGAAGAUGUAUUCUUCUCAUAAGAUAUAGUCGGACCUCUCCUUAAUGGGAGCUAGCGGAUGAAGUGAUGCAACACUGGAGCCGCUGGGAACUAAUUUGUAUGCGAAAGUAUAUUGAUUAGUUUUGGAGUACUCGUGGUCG
Settings: 30 °C
Examples of sequences with documented self-splicing fitness (ln) follow.
Readout Label: self-splicing fitness (ln)

# Sequence Content, Readout Label, Observed Result
data = [
    ("UAAUAGCAAUAUUACGUUCA", "self-splicing fitness (ln)", -0.833),
    ("GCGUAGCAAUAUUACGCUAA", "self-splicing fitness (ln)", -3.9),
    ("GCUUAGCAAUAUUACGAGUC", "self-splicing fitness (ln)", -2.18),
    ("CCCUAGCAAUAUUACGGGCC", "self-splicing fitness (ln)", -3.25),
    ("UUAAAGCAAUAUUACGGGCC", "self-splicing fitness (ln)", -1.7),
    ("AAUGAGCAAUAUUACGAGGA", "self-splicing fitness (ln)", -2.86),
    ("AAUAAGCAAUAUUACGAUAC", "self-splicing fitness (ln)", -2.25),
    ("UGCUAGCAAUAUUACGGUUA", "self-splicing fitness (ln)", -0.0068),
    ("ACACAGCAAUAUUACGAGGC", "self-splicing fitness (ln)", -3.49),
    ("UCAAAGCAAUAUUACGUGAA", "self-splicing fitness (ln)", -1.42),
    ("UUUGAGCAAUAUUACGUUCU", "self-splicing fitness (ln)", -3.55),
    ("AACGAGCAAUAUUACGCGAC", "self-splicing fitness (ln)", -2.91),
    ("ACUGAGCAAUAUUACGGGGC", "self-splicing fitness (ln)", -4.03),
    ("AUAAAGCAAUAUUACGGCAA", "self-splicing fitness (ln)", 0.284),
    ("GUUAAGCAAUAUUACGGCAC", "self-splicing fitness (ln)", -0.637),
    ("ACCCAGCAAUAUUACGUAGC", "self-splicing fitness (ln)", -0.673),
    ("UACGAGCAAUAUUACGGAGC", "self-splicing fitness (ln)", -2.66),
    ("AAGUAGCAAUAUUACGACCU", "self-splicing fitness (ln)", 0.0875),
    ("CAAGAGCAAUAUUACGAUAG", "self-splicing fitness (ln)", -1.53),
    ("UAAUAGCAAUAUUACGGGAA", "self-splicing fitness (ln)", -2.04),
    ("UAGCAGCAAUAUUACGCACA", "self-splicing fitness (ln)", -0.126),
    ("GUGAAGCAAUAUUACGCGCC", "self-splicing fitness (ln)", -4.14),
    ("CGUUAGCAAUAUUACGUAUA", "self-splicing fitness (ln)", -2.85),
    ("UCACAGCAAUAUUACGCUCU", "self-splicing fitness (ln)", -2.38),
    ("UCAGAGCAAUAUUACGAAGU", "self-splicing fitness (ln)", -3.13),
    ("UUGCAGCAAUAUUACGAGUC", "self-splicing fitness (ln)", -3.64),
    ("CUACAGCAAUAUUACGGCGG", "self-splicing fitness (ln)", -1.34),
    ("AGAAAGCAAUAUUACGAUCG", "self-splicing fitness (ln)", -0.0642),
    ("CCGCAGCAAUAUUACGAGGU", "self-splicing fitness (ln)", -3.73),
    ("GCUAAGCAAUAUUACGUCAU", "self-splicing fitness (ln)", -1.7),
    ("CCUUAGCAAUAUUACGCGAA", "self-splicing fitness (ln)", -4.02),
    ("AGACAGCAAUAUUACGCUAG", "self-splicing fitness (ln)", -4.3),
    ("AGGUAGCAAUAUUACGAGUA", "self-splicing fitness (ln)", -2.42),
    ("GCCCAGCAAUAUUACGGGGU", "self-splicing fitness (ln)", -3.84),
    ("GACGAGCAAUAUUACGCGUA", "self-splicing fitness (ln)", -1.82),
    ("CGACAGCAAUAUUACGAUUU", "self-splicing fitness (ln)", -2.34),
    ("UUGAAGCAAUAUUACGAGUG", "self-splicing fitness (ln)", -0.347),
    ("UCCUAGCAAUAUUACGUAAA", "self-splicing fitness (ln)", -1.84),
    ("CCGCAGCAAUAUUACGGCGG", "self-splicing fitness (ln)", -4.17),
    ("AAAAAGCAAUAUUACGGCGC", "self-splicing fitness (ln)", -0.402),
    ("CUUUAGCAAUAUUACGAAUC", "self-splicing fitness (ln)", -1.01),
    ("UUUAAGCAAUAUUACGAGAC", "self-splicing fitness (ln)", -2.33),
    ("GCCCAGCAAUAUUACGACUG", "self-splicing fitness (ln)", -4.23),
    ("ACCUAGCAAUAUUACGAUUC", "self-splicing fitness (ln)", -1.72),
    ("GGGCAGCAAUAUUACGAGGU", "self-splicing fitness (ln)", -4.65),
    ("GUAAAGCAAUAUUACGCUUU", "self-splicing fitness (ln)", -3.46),
    ("GUACAGCAAUAUUACGGUGC", "self-splicing fitness (ln)", -3.12),
    ("GCCAAGCAAUAUUACGGUAA", "self-splicing fitness (ln)", -0.713),
    ("UAUAAGCAAUAUUACGCAGU", "self-splicing fitness (ln)", -3.27),
    ("AGGCAGCAAUAUUACGGUGG", "self-splicing fitness (ln)", -3.05),
    ("GUACAGCAAUAUUACGUAGC", "self-splicing fitness (ln)", -0.896),
    ("GUGAAGCAAUAUUACGCUGU", "self-splicing fitness (ln)", -2.74),
    ("CUAAAGCAAUAUUACGUACU", "self-splicing fitness (ln)", -3.28),
    ("ACGGAGCAAUAUUACGAACG", "self-splicing fitness (ln)", -2.54),
    ("AGAUAGCAAUAUUACGUGCG", "self-splicing fitness (ln)", -1.19),
    ("GAAAAGCAAUAUUACGCAUG", "self-splicing fitness (ln)", -1.12),
    ("AUCAAGCAAUAUUACGGACG", "self-splicing fitness (ln)", -0.832),
    ("GCAAAGCAAUAUUACGUUGU", "self-splicing fitness (ln)", -3.71),
    ("CAAGAGCAAUAUUACGCGUU", "self-splicing fitness (ln)", -3.61),
    ("CCUGAGCAAUAUUACGGGAA", "self-splicing fitness (ln)", -2.46),
    ("AGCUAGCAAUAUUACGGACU", "self-splicing fitness (ln)", "8.42e-05"),
    ("AUCGAGCAAUAUUACGUUAG", "self-splicing fitness (ln)", -3.73),
    ("UAACAGCAAUAUUACGCUUU", "self-splicing fitness (ln)", -3.43),
    ("UUAAAGCAAUAUUACGUGUU", "self-splicing fitness (ln)", -3),
    ("UACUAGCAAUAUUACGAAAG", "self-splicing fitness (ln)", -2.94),
    ("GGUCAGCAAUAUUACGUCCG", "self-splicing fitness (ln)", -0.0947),
    ("UCGAAGCAAUAUUACGAGGU", "self-splicing fitness (ln)", -3.45),
]
